Attribution: BigSolDB 2.1

conditions: in ethyl acetate, 283.15 K
ENDPOINT_NAME: solubility (mole fraction)
Respond using a number only.

Notebook: O=C(O)COc1ccc(Cl)cc1 , solubility (mole fraction) read as 0.0266

* * *

settings: in ethyl acetate, 318.15 K
ENDPOINT_NAME: solubility (mole fraction)
Respond using a number only.

Notebook: O=C(O)COc1ccc(Cl)cc1 , solubility (mole fraction) read as 0.0731

* * *

conditions: in methyl acetate, 288.15 K
ENDPOINT_NAME: solubility (mole fraction)
Respond using a number only.

Notebook: O=C(O)COc1ccc(Cl)cc1 , solubility (mole fraction) read as 0.0325

* * *

conditions: in ethyl formate, 288.15 K
ENDPOINT_NAME: solubility (mole fraction)
Respond using a number only.

Notebook: O=C(O)COc1ccc(Cl)cc1 , solubility (mole fraction) read as 0.0164
